Where these numbers come from: patent EP0532097A1

# study-target: uterine OT receptors (Rattus norvegicus, UniProt P70536)
# Construct: using a crude membrane preparation of uteri; from tissue; host or cells: uterus of DES-treated rats, crude membrane preparation
# Sequence (P70536 whole entry): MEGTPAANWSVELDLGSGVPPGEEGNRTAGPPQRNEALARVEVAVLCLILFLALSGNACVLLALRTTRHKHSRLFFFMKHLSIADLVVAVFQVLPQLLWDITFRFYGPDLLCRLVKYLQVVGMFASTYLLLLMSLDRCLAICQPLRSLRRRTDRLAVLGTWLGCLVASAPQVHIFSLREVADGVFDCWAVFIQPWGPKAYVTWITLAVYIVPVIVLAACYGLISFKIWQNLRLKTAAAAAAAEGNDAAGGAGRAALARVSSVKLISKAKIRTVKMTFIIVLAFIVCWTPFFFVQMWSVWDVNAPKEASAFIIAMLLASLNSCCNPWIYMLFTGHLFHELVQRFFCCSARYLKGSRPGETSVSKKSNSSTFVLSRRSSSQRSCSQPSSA
# method: [³H]Oxytocin radioligand binding assay, crude membrane preparation of uteri from DES-treated rats
# experimental-conditions: read-out: inhibition at 100 nM
// reported inhibition at 0.1 µM per item

compound	study-target	inhibition at 0.1 µM, %
Cc1ccccc1N1CCN(S(=O)(=O)C[C@]23CC[C@H](C[C@@H]2NC(=O)[C@H](CCS(C)(=O)=O)NC(=O)OC(C)(C)C)C3(C)C)CC1 [Example 35]	uterine OT receptors (Rattus norvegicus, UniProt P70536)	91
CCOC(=O)CN1CCCC1C(=O)NCC(C)C1(O)CC2CCC1(CS(=O)(=O)N1CCN(c3ccccc3C)CC1)C2(C)C (stereo not drawn) [Example 52]	uterine OT receptors (Rattus norvegicus, UniProt P70536)	66
CCOC(=O)C(CC=C1CC2CCC1(CS(=O)(=O)N1CCN(c3ccccc3C)CC1)C2(C)C)(NC(C)=O)C(=O)OCC (stereo not drawn) [Example 28]	uterine OT receptors (Rattus norvegicus, UniProt P70536)	35
Cc1ccccc1N1CCN(S(=O)(=O)C[C@]23CC[C@H](C[C@@H]2C(=O)NCCc2cnc[nH]2)C3(C)C)CC1 [Example 25]	uterine OT receptors (Rattus norvegicus, UniProt P70536)	34
CCOC(=O)CN1CCC(C(=O)NCC(C)C2(O)CC3CCC2(CS(=O)(=O)N2CCN(c4ccccc4C)CC2)C3(C)C)CC1 (stereo not drawn) [Example 57]	uterine OT receptors (Rattus norvegicus, UniProt P70536)	66
COC(=O)CCNCC(C)C1(O)CC2CCC1(CS(=O)(=O)N1CCN(c3ccccc3C)CC1)C2(C)C (stereo not drawn) [Example 10]	uterine OT receptors (Rattus norvegicus, UniProt P70536)	48
C=CC1(O)CC2CCC1(CS(=O)(=O)N1CCN(c3ccccc3C)CC1)C2(C)C (stereo not drawn) [Example 12]	uterine OT receptors (Rattus norvegicus, UniProt P70536)	23
CCOC(=O)CN1CCCC(C(=O)NCC(C)C2(O)CC3CCC2(CS(=O)(=O)N2CCN(c4ccccc4C)CC2)C3(C)C)C1 (stereo not drawn) [Example 50]	uterine OT receptors (Rattus norvegicus, UniProt P70536)	66
Cc1ccccc1N1CCN(S(=O)(=O)CC23CCC(CC2=CCNC(=O)Cc2cnc[nH]2)C3(C)C)CC1 (stereo not drawn) [Example 17]	uterine OT receptors (Rattus norvegicus, UniProt P70536)	36
